Biological target: ABCG2 (Homo sapiens)
Sequence (Q9UNQ0 whole entry): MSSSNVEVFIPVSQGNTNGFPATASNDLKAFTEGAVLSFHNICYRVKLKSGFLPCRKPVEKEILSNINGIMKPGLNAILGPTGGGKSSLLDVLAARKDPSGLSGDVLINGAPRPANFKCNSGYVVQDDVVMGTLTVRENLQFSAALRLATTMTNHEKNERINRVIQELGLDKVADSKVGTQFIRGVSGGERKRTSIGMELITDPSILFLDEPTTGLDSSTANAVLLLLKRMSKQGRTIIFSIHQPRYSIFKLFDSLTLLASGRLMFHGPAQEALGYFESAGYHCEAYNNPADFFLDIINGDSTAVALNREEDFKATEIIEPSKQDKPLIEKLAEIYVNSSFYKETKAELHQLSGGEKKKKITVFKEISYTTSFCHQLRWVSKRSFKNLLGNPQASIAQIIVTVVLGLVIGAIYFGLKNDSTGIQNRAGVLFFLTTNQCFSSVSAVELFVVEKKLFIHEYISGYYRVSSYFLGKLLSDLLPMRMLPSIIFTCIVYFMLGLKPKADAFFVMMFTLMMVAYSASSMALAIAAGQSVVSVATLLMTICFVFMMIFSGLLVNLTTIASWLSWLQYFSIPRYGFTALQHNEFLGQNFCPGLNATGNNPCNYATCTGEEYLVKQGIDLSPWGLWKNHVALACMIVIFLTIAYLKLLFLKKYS
Experiment: Activation of human ABCG2-mediated ATPase activity preincubated for 2 mins followed by ATP addition at 100 nM and measured after 20 mins by colorimetric assay relative to control
Details: read-out: Activity
// label = Criterion met if activity at 20 min, 0.1 µM is not less than 40%, otherwise Criterion not met

Known results for molecules:
Challenge: # check: activity at 20 min, 0.1 µM of CCOC(=O)C12CC1[C@@H](n1ccc3c(NCCCc4ccc(OC)c(O)c4)nc(C#Cc4ccc(Cl)s4)nc31)[C@H](O)[C@@H]2O (single isomer, unassigned) is greater than or equal to 40%
Response given: Criterion met

Challenge: // next record CCCOC(=O)C12CC1[C@@H](n1cnc3c(NC)nc(C#Cc4ccc(Cl)s4)nc31)[C@H](O)[C@@H]2O (single isomer, unassigned)
Response given: Criterion not met

Challenge: // next record Oc1ccc(CCNC2=NC(C#Cc3ccc(Cl)s3)=NC3=NC=NC32)cc1O (centres undefined)
Response given: Criterion met

Others:
Challenge: # check: activity at 20 min, 0.1 µM of CCOC(=O)C12C[C@@H]1[C@@H](n1ccc3c(NCCCc4ccccc4)nc(C#Cc4ccccc4)nc31)[C@H](O)[C@@H]2O (single isomer, unassigned) is greater than or equal to 40%
Response given: Criterion not met

Challenge: // next record CCOC(=O)C12CC1[C@@H](n1cnc3c(NCCc4ccc(O)c(OC)c4)nc(C#Cc4ccc(Cl)s4)nc31)[C@H](O)[C@@H]2O (single isomer, unassigned)
Response given: Criterion met

Challenge: // next record CNc1nc(C#Cc2ccc(Cl)s2)nc2c1ncn2[C@@H]1C2CC2(C(=O)Oc2ccccc2)[C@@H](O)[C@H]1O (single isomer, unassigned)
Response given: Criterion met

Challenge: // next record COc1ccc(CCNC2=NC(I)=NC3=NC=CC32)cc1O (centres undefined)
Response given: Criterion met

Challenge: // next record COc1ccc(CCNC2=NC(C#Cc3ccc(Cl)s3)=NC3=NC=CC32)cc1O (centres undefined)
Response given: Criterion met

Challenge: // next record CCOC(=O)C12CC1[C@@H](n1cnc3c(NCCc4ccc(OC)c(O)c4)nc(C#Cc4ccc(Cl)s4)nc31)[C@H](O)[C@@H]2O (single isomer, unassigned)
Response given: Criterion met

Challenge: // next record CCOC(=O)C12CC1[C@@H](n1ccc3c(NCCc4ccccc4)nc(C#Cc4ccccc4)nc31)[C@H](O)[C@@H]2O (single isomer, unassigned)
Response given: Criterion met

Challenge: // next record `CNc1nc(C#Cc2ccc(Cl)s2)nc2c1ncn2[C@H]1[C@H](O)[C@H](O)[C@@]2(C(=O)OCCCc3ccccc3)C[C@H]12`
Response given: Criterion not met

Challenge: // next record Clc1ccc(C#CC2=NC3=NC=NC3C(NCCc3ccccc3)=N2)s1 (centres undefined)
Response given: Criterion met
